Test system: green peach aphid (Myzus persicae)
Assay: Myzus persicae spray test (Chinese cabbage leaf discs)
Format: in vivo
Settings: foliar, 144 h, read-out: efficacy in %
Metric: pest or weed control at 500 g/ha (%)
One number for each entry, in %.

Answered examples (3):
>  <Molecule>
Cc1cccc(-c2ccc3nn(-c4cccnc4)cc3c2)n1 [Example 64]

>  <Assay system>
green peach aphid (Myzus persicae)

>  <pest or weed control at 500 g/ha, %>
90

$$$$
>  <Molecule>
Fc1cccc(-c2ccc3nn(-c4cccnc4)cc3c2)n1 [Example 104]

>  <Assay system>
green peach aphid (Myzus persicae)

>  <pest or weed control at 500 g/ha, %>
90

$$$$
>  <Molecule>
CN(C(=O)CC(C)(F)F)c1ccc2nn(-c3cccnc3)cc2c1 [Example 112]

>  <Assay system>
green peach aphid (Myzus persicae)

>  <pest or weed control at 500 g/ha, %>
100

$$$$

Form: molecule = Cc1cc(F)c(NC(=O)c2ccc3nn(-c4cccnc4)cc3c2)cc1[S+]([O-])CC(F)(F)F (stereo not shown) [Example 96] ; pest or weed control at 500 g/ha = 100

Where these numbers come from: patent US10131649B2
